In this section we review reported melting point values for a set of molecules.

Which melting point is reported for this molecule? "Cc1sc(-n2nc(C(=O)O)nc2CCl)c(C(=O)c2ccccc2)c1C"
162 to 163 °C

Which melting point is reported for this molecule? Cc1cc(C)cc(S(=O)c2cccc(N)c2C#N)c1 (stereo not given)
190 to 191 °C

Which melting point is reported for this molecule? "N=C(Nc1cc(Cl)cc(NC(=O)/C=C/c2ccccc2Br)c1)c1ccccc1"
99 to 101 °C

Which melting point is reported for this molecule? "CC(=O)NC[C@H](O)CC(=O)NN"
178 °C

Which melting point is reported for this molecule? "OC(c1ccc(Cl)cc1)(c1ccc(Cl)cc1)c1nccn1Cc1ccc(Cl)cc1"
171 to 173 °C

====

REPORTED ENDPOINT: melting point

Which melting point is reported for this compound? "Cc1c(CNc2cccc(N)n2)c(C)c(CNc2cccc(N)n2)c(C)c1CNc1cccc(N)n1"
130 to 132 °C

Which melting point is reported for this compound? "Cc1nc[nH]c1CSCCN=C(NC#N)NCCO"
146 to 147 °C

Which melting point is reported for this compound? "COc1ccc2c(c1)c(S(=O)(=O)c1ccccc1)cn2CCCl"
148 to 150 °C

Which melting point is reported for this compound? "CNS(=O)(=O)c1cc(S(=O)(=O)NCc2ccccc2)c(Cl)cc1N"
151 to 152 °C

Which melting point is reported for this compound? CC1Cc2cc3c(cc2C(c2ccc([N+](=O)[O-])cc2)=NN1C(=O)CBr)OCO3 (stereo not given)
183 to 186 °C

Which melting point is reported for this compound? "Cc1ccc(S(=O)(=O)NC(=N)CCN2CCOC2=O)cc1"
129 to 134 °C

Which melting point is reported for this compound? "Cc1ccc(C(=O)c2cc(CN(C)CCO)c(O)c(C(C)(C)C)c2)cc1"
131 to 132 °C

Which melting point is reported for this compound? "CCCCCCCCCCCCCCOc1cccc(C(=O)Cl)c1"
26 to 27 °C

Which melting point is reported for this compound? "COC(=O)c1cc(OP(=O)(OC)OC)c(C(=O)OC)s1"
60 °C

Which melting point is reported for this compound? "O=C(c1ccccc1)c1c(-c2ccccc2)sc2cc(O)ccc12"
221 to 222 °C

====

In this section we review reported melting point values for a set of compounds.

Recorded melting point, per entry:
compound="CC(=O)C1CCC2C3CCC4C=CCCC4(C)C3CCC12C (stereo unspecified)" result="135 to 136 °C"
compound=CC1(C)C(=O)Nc2cc3[nH]c(-c4ccc(Cl)c(Cl)c4)nc3cc21 result="320 to 325 °C"
compound="O=C(NC1C(=O)Nc2ccccc2SC1c1ccccc1)OCc1ccccc1 (stereo unspecified)" result="246 to 248 °C"
compound=C=CC(=O)c1ccc(OC(=O)c2ccc(C#N)cc2)cc1 result="122 °C"
compound="CC(C)(C)OC(=O)NC1CCCOCC=CC2CC2(C(=O)NS(=O)(=O)C2CC2)NC(=O)C2CC(OC(=O)NCC3CCCCC3)CN2C1=O (stereo unspecified)" result="142 to 144 °C"

Which melting point is reported for this compound? "COc1cc2nc(Cl)nc(N)c2c(OC)c1OC"
138 to 140 °C

Which melting point is reported for this compound? "CCCCOCCOc1ccc(-c2ccc3c(c2)C=C(C(=O)Nc2ccc(N(C)Cc4nncn4CCC)cc2)CCN3CCC)cc1"
131 to 133 °C

====

REPORTED ENDPOINT: melting point

Recorded melting point, per entry:
compound=COC=C(C(=O)OC)c1ccccc1CC(=O)c1ccccc1Cl result="70 to 75 °C"
compound="O=C1C2CCCN2c2ncccc2N1Cc1ccccc1 (stereo unspecified)" result="222 to 225 °C"
compound=Cc1nc(C(N)=O)c2n1-c1ccc(Cl)cc1C(c1ccccc1)=NC2 result="335 to 340 °C"

Which melting point is reported for this compound? "C=CCn1c(=O)c(OC)nn(-c2cccc(NC(C)=O)c2)c1=O"
72 to 73 °C

Which melting point is reported for this compound? "N#Cn1c(SCC(=O)N2CCCc3ccccc32)nc2ccccc21"
153 to 154 °C

Which melting point is reported for this compound? "CC(C)(C)c1cc(SCCc2n[nH]c(=O)o2)cc(C(C)(C)C)c1O"
86 to 87.5 °C

Which melting point is reported for this compound? CCOC(=O)C1Cn2c(nc3c(cnn3C)c2=O)S1 (stereo unspecified)
159 °C

Which melting point is reported for this compound? CCCCN=C(CS(C)=O)c1cc2ccccc2cc1O (stereo unspecified)
162 to 164 °C

Which melting point is reported for this compound? "O=C(O)CCc1oc2cc(O)ccc2c(=O)c1C(=O)O"
218 to 219 °C

Which melting point is reported for this compound? CCn1cc(C(=O)O)c(=O)c2cc(F)c(N3CC4CC3CN4)c(F)c21 (stereo unspecified)
233 to 236 °C

Which melting point is reported for this compound? COc1ccc(-c2noc3c2CCCC(C(=O)O)C3)cc1 (stereo unspecified)
194 to 196 °C

====

In this section we review reported melting point values for a set of molecules.

Recorded melting point, per entry:
molecule=CCn1c(=O)ccc2cnc(Nc3cccc(F)c3)nc21 result="210 to 212 °C"
molecule=CCCCC(=O)NCCc1c(OC)ccc2ccccc12 result="69 to 75 °C"
molecule=CCCCCn1cc2cc(CCCC)oc2nc1=O result="139 to 141 °C"

Which melting point is reported for this molecule? "CCCc1cc2c(NCCc3ccccc3)ncnc2s1"
110 °C

Which melting point is reported for this molecule? CS(=O)c1ccc(CCCCCCCCCCC(Cl)(Cl)C(=O)O)cc1 (stereo unspecified)
75 to 76 °C

====

REPORTED ENDPOINT: melting point

molecule=Fc1ccc2c(c1)Sc1ccc(C(F)(F)F)cc1C2=C1CCNCC1 result="125 to 130 °C"

Which melting point is reported for this molecule? NCCOCC(O)c1ccc2sccc2c1 (stereo unspecified)
87 to 90.5 °C

Which melting point is reported for this molecule? "CC(=O)Nc1cc(C)c([N+](=O)[O-])cn1"
153 to 154 °C

====

REPORTED ENDPOINT: melting point (°C)
Provide the reading as a plain figure in °C.

structure_notation=NS(=O)(=O)c1cc(C(=O)O)cc(S)c1Oc1ccccc1 reported_endpoint="melting point" numeric_result=225

Which melting point is reported for this compound? "O=C1NCN(c2ccccc2)C12CCN(CCCn1cnc3ccccc31)CC2"
191

====

In this section we review reported melting point values for a set of compounds.

Recorded melting point, per entry:
compound="Cc1ccc(C)n1C(C)c1ncccc1F (stereo unspecified)" reported_endpoint="melting point" result="82 to 84 °C"
compound="COc1cc2c(cc1OC(C)=O)CCC1C3=CC=C(OC(C)=O)C3(C)CCC21 (stereo unspecified)" reported_endpoint="melting point" result="191 to 194 °C"
compound=O=CNCC1c2ccccc2C=Cc2ccccc21 reported_endpoint="melting point" result="115 to 118 °C"

Which melting point is reported for this compound? "COc1cc(C(=O)NS(=O)(=O)Cc2ccccc2C(F)(F)F)nc(C)n1"
120 to 122 °C

Which melting point is reported for this compound? "OCc1ccc2cc(-c3nnc(CSCCOc4ccccc4)o3)ccc2c1"
132 to 133 °C

Which melting point is reported for this compound? "Cc1cccc(CN2CCCN(C)C(=O)[C@H]2NC(=O)OCc2ccccc2)c1"
70 to 71 °C

Which melting point is reported for this compound? "CN1CCN(C(=O)Cn2c(-c3cc(Cl)ccn3)nc3cccnc32)CC1"
174 to 175 °C

Which melting point is reported for this compound? "Cc1ccc(S(=O)(=O)Nc2nc(-c3ccc(OCc4ccccc4)cc3)cs2)cc1"
166 to 167 °C

Which melting point is reported for this compound? "O=c1oc(-c2ccccc2)cc(O)c1CCCc1ccccc1"
195 to 196 °C

Which melting point is reported for this compound? "Cc1c(-c2ccccc2)c(Cl)nc2ccccc12"
88 to 90 °C

Which melting point is reported for this compound? O=C1NCCCC1Cc1ccccc1 (stereo unspecified)
120 to 123 °C

====

In this section we review reported melting point values for a set of compounds.

compound=CCNn1c(C)nc(N2CCc3ccccc3CC2)c(C#N)c1=O reported_endpoint="melting point" result="172 to 174 °C"
compound=COc1cc(Nc2c(C#N)cnc3cc(SCc4ccccc4)c(OC)cc23)c(Cl)cc1Cl reported_endpoint="melting point" result="123 to 125 °C"
compound=c1ccc(OCCCCCCN2CCN(c3nccs3)CC2)cc1 reported_endpoint="melting point" result="37 to 39 °C"
compound=CN1CCCN(c2cc3ccccc3c(=O)[nH]2)CC1 reported_endpoint="melting point" result="171 to 172 °C"
compound="CC(CCCc1ccccc1)c1cc2oc(=O)c3c(c2cc1O)CCCC3 (stereo not given)" reported_endpoint="melting point" result="184 to 193 °C"
compound=O=C(O)c1cccc(-c2nnc(-c3ccc(C(F)(F)F)cc3)o2)c1 reported_endpoint="melting point" result="239 to 240 °C"

Which melting point is reported for this compound? "C=CCc1cc2ccc(=O)oc2c(OC)c1OC(C)=O"
101 to 102 °C

Which melting point is reported for this compound? "CC(C)(C)OC(=O)Nc1ccc(Nc2nc(-c3ccc4cc(OCc5ccccc5)ccc4c3)cc3ccnn23)cc1"
189 °C

Which melting point is reported for this compound? "CCCN1CCN(c2cc3ccccc3c(=O)[nH]2)CC1"
208 to 209 °C

Which melting point is reported for this compound? "O=C(c1ccccc1)c1ccccc1C#CCN1C(=O)c2ccccc2C1=O"
164 to 165 °C

Which melting point is reported for this compound? "CCOc1cc(Cl)ccc1-c1nc2n(C3CCCC3)[nH]c(CC)c-2c(=O)n1"
185 to 187 °C

Which melting point is reported for this compound? "Fc1cccc(F)c1-c1ncc(NCc2ccc(Cl)cc2)nn1"
200 to 205 °C

Which melting point is reported for this compound? "COc1cc2c(cc1Nc1ncc(Cl)c(Nc3ccccc3S(=O)(=O)N(C)C)n1)CCN(CC(=O)N1CCCC1)CC2"
75 to 93 °C

Which melting point is reported for this compound? COC(=O)CC(=O)COc1cc(O)c2c(c1)OC(c1ccc(OC)c(O)c1)CC2=O (stereo not given)
114 to 118 °C

Which melting point is reported for this compound? "CCOC(=O)c1ccc(S(=O)(=O)C(C)(C)C)cc1Cl"
82.4 to 83 °C
